The entries below are paired with their reported AC50.
# Test system: INS-1E rat beta cells, no cytokines, CellTiter-Glo ATP, 48 h
# assay_comment: cytokine-free beta-cell viability effect – INS-1E rat cells, ATP luminescence, cherry pick, counter-screen for beta-cell apoptosis protection project, dose response (AID 463229)

Below, 3 compounds whose answers are already recorded.
INSERT INTO assay_data (compound, result) VALUES
  ('CCOC(=O)C(=CNc1ccc(C(O)(C(=O)OCC)C(F)(F)F)cc1C)C(=O)OCC (stereo not given)', '5.26 µM'),
  ('COc1ccc(-n2c(-c3ccc(Cl)cc3)c[n+]3c2CCCCC3)cc1', '1.6 µM'),
  ('Cc1cc(N/N=C/c2ccc(F)cc2)nc(-n2nc(C)cc2C)n1', '20.1 µM');

### Prompt # get_value(readout='AC50', item= "O=C(Nc1cccc(C(F)(F)F)c1)Oc1ccc(Cl)c2cccnc12" )
### Response 7.64 µM

### Prompt # get_value(readout='AC50', item= "CCOc1ccc(Nc2nc(Cc3nnc(SCC(=O)c4ccc(C)c(C)c4)o3)cs2)cc1" )
### Response 10.6 µM

### Prompt # get_value(readout='AC50', item= "O=S(=O)(C/C(=C/CO)S(=O)(=O)c1ccccc1)c1ccccc1" )
### Response 10.9 µM

====

# Tested on: INS-1E rat beta cells, no cytokines, CellTiter-Glo ATP, 48 h
# assay_comment: cytokine-free beta-cell viability effect – INS-1E rat cells, ATP luminescence, cherry pick, counter-screen for beta-cell apoptosis protection project, dose response (AID 463229)
Activity calls are given as the source filed them.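 Rule for the calls: active = compounds raising the signal whose fitted half-maximal concentration is at or below their top tested dose (cut at about 25 µM in these data); inconclusive = flat fit at 30 to 70% activity, or a poor fit; inactive = the rest.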
Use one of these outcomes when replying: active, inactive

Reference set (4 entries):
INSERT INTO assay_data (compound, assigned_category) VALUES
  ('Nc1nonc1-n1nnc(C(=O)N/N=C/c2cc(Br)ccc2O)c1CSC1=NCCS1', 'active'),
  ('COc1ccc(Cn2c(SCc3cc(C)ccc3C)nc3cc(OC)c(OC)cc3c2=N)cc1', 'active'),
  ('Cc1nc2c3cc(F)ccc3n(Cc3ccccc3)c2s1', 'inactive'),
  ('c1ccc(-c2csc3ncnc(NCC4COc5ccccc5O4)c23)cc1 (stereo not given)', 'active');

Next compound, please.
### Prompt So what was the verdict on "C/C(=N\NC(=O)c1ccc(C)cc1)c1c(C)[nH]n(-c2ccccc2)c1=O" in this test?
### Response active

====

The entries below are paired with their reported AC50.
# Test system: INS-1E rat beta cells, no cytokines, CellTiter-Glo ATP, 48 h
# assay_comment: cytokine-free beta-cell viability effect – INS-1E rat cells, ATP luminescence, cherry pick, counter-screen for beta-cell apoptosis protection project, dose response (AID 463229)

Below, 3 compounds whose answers are already recorded.
INSERT INTO results (compound, parameter, result) VALUES
  ('O=C(CSc1nnc(Cn2nnc3ccccc32)o1)N(Cc1ccc(Cl)cc1)c1ccccc1', 'AC50', '6.17 µM'),
  ('O=C(Nc1cc(-c2ccccc2)nn1C1CCCCC1)c1ccc(Cl)cc1', 'AC50', '3.67 µM'),
  ('COC(=O)C1=C(c2ccc(OCc3ccccc3)cc2)C[C@@H]2CC[C@H]1N2C(=O)NC1CCN(Cc2ccccc2)CC1', 'AC50', '7.55 µM');

### Prompt # get_value(readout='AC50', item= Cc1ccccc1OCc1n(CC(=O)OC2CC(C)CCC2C(C)C)c2ccccc2[n+]1C (stereo not given) )
### Response 4.05 µM

### Prompt # get_value(readout='AC50', item= "Cc1occc(=O)c1OC(=O)Nc1ccc(Cl)c(Cl)c1" )
### Response 7.74 µM

### Prompt # get_value(readout='AC50', item= "Cc1nnc(N/N=C/c2cc([N+](=O)[O-])c(N3CCC(C)CC3)cc2N2CCC(C)CC2)n1N" )
### Response 2.54 µM

### Prompt # get_value(readout='AC50', item= "Cc1cccc(NC(=S)N/N=C/c2ccc([N+](=O)[O-])s2)c1" )
### Response 7.67 µM

### Prompt # get_value(readout='AC50', item= CCCC(=O)NC(NC(=S)Nc1ccc(N=Nc2ccccc2)cc1)C(Cl)(Cl)Cl (stereo not given) )
### Response 7.51 µM

### Prompt # get_value(readout='AC50', item= "Cc1ccc(-c2cn(-c3ccc(OC(F)F)cc3)c3[n+]2CCCCC3)cc1" )
### Response 1.45 µM

### Prompt # get_value(readout='AC50', item= CC(=O)NC(c1ccc(C(C)C)cc1)c1ccc2cccnc2c1O (stereo not given) )
### Response 1.98 µM
